- assay_method_text: background-corrected fluorescence of 3'-dye-labeled ssDNA relative to brightest sequence (3'-GCGCG) (fraction); higher = brighter dye fluorescence (less quenching)
- recorded_conditions: dye: Cy3 (3' terminal)
Quick reference for background-corrected fluorescence among some sequences
Reply with the value as a number alone.

Some sequences with recorded background-corrected fluorescence:
TTTTTTGCTGCTGCGCATCATTTTTTTTTTTTTTTAAATG [GTAAA] ... 0.499
TTTTTTCATCATCATGATCATTTTTTTTTTTTTTTGGGCG [GCGGG] ... 0.69
TTTTTTCAGCATCATGCTGCTTTTTTTTTTTTTTTGTGAA [AAGTG] ... 0.607
TTTTTTGATGCGCATGCTGATTTTTTTTTTTTTTTCATAC ... 0.443

Here is another sequence to look at.
May I ask what background-corrected fluorescence has been recorded for TTTTTGCATGATGCTCAGCATTTTTTTTTTTTTTTTCAGT [TGACT] ? 0.596

----------
- assay_method_text: background-corrected fluorescence of 3'-dye-labeled ssDNA relative to brightest sequence (3'-GCGCG) (fraction); higher = brighter dye fluorescence (less quenching)
- recorded_conditions: dye: Cy3 (3' terminal)
Where background-corrected fluorescence equals or exceeds 0.5, the correct label is true (1); where it does not, the label is false (0).

TTTTTTCATGCTGAGCATGATTTTTTTTTTTTTTTGACTC [CTCAG] ... false (0)
TTTTTTCAGCATCAGCAGCATTTTTTTTTTTTTTTGTGTT ... true (1)
TTTTTTGATCAGCAGCATGCTTTTTTTTTTTTTTTCGTTA [ATTGC] ... true (1)
TTTTTTGATGCTGAGCATGCTTTTTTTTTTTTTTTCACTA [ATCAC] ... false (0)
TTTTTGCAGCATGATCAGCATTTTTTTTTTTTTTTTTCGT [TGCTT] ... true (1)
TTTTTTGATGATCATCATGATTTTTTTTTTTTTTTCCGGC [CGGCC] ... true (1)
TTTTTTGCTCATCATGCTGCTTTTTTTTTTTTTTTAGGAA [AAGGA] ... true (1)

With those in mind, consider the next sequence.
Please indicate if the recorded background-corrected fluorescence for TTTTTTCATGCTGATGCGCATTTTTTTTTTTTTTTGACAT [TACAG] meets or exceeds 0.5. true (1)

----------
- assay_method_text: background-corrected fluorescence of 3'-dye-labeled ssDNA relative to brightest sequence (3'-GCGCG) (fraction); higher = brighter dye fluorescence (less quenching)
- recorded_conditions: dye: Cy5 (3' terminal)
Label scheme, based on background-corrected fluorescence: zone 1 (below 0.3), zone 2 (0.3 to below 0.4), zone 3 (0.4 or more)

Assign a category based on measured background-corrected fluorescence for TTTTTTGCTCATGAGCATGATTTTTTTTTTTTTTTAGCTC [CTCGA] and give only the class name. zone 2

----------
- assay_method_text: background-corrected fluorescence of 3'-dye-labeled ssDNA relative to brightest sequence (3'-GCGCG) (fraction); higher = brighter dye fluorescence (less quenching)
- recorded_conditions: dye: Cy5 (3' terminal)
# background-corrected fluorescence values compiled below
Please state the value as a number alone, without comment.

Example entries and their recorded answers appear below.
TTTTTTCATGATGCTCATGCTTTTTTTTTTTTTTTGCAGA [AGACG] ... 0.552
TTTTTTCATCATGCTGAGCATTTTTTTTTTTTTTTGGACT [TCAGG] ... 0.412
TTTTTTCATCAGCATGATCATTTTTTTTTTTTTTTGGTCG [GCTGG] ... 0.405
TTTTTTCATCAGCATGAGCATTTTTTTTTTTTTTTGGTCT [TCTGG] ... 0.391

# ---- query sequence ----
What value of background-corrected fluorescence has been recorded for this entry: TTTTTTCATGCTGATGATGCTTTTTTTTTTTTTTTGACCA [ACCAG] 0.394

----------
- assay_method_text: background-corrected fluorescence of 3'-dye-labeled ssDNA relative to brightest sequence (3'-GCGCG) (fraction); higher = brighter dye fluorescence (less quenching)
- recorded_conditions: dye: Cy3 (3' terminal)
measurement_kind: background-corrected fluorescence
# output: bare number, no unit

Check out these entries, answers already filled in.
TTTTTGCATGATCATGCTCATTTTTTTTTTTTTTTTCGAG [GAGCT] ... 0.616
TTTTTTGCTCATCATCATGATTTTTTTTTTTTTTTAGGGC [CGGGA] ... 0.598
TTTTTGCATGATGCTGATCATTTTTTTTTTTTTTTTCACG [GCACT] ... 0.491
TTTTTTCATCATCATGAGCATTTTTTTTTTTTTTTGGGCT [TCGGG] ... 0.527
TTTTTGCATGCTGATGCTGATTTTTTTTTTTTTTTTACAC [CACAT] ... 0.425
TTTTTTGCGCATGCTGCTGCTTTTTTTTTTTTTTTATAAA [AAATA] ... 0.567
TTTTTTGCTGAGCATGCTCATTTTTTTTTTTTTTTACTAG [GATCA] ... 0.554
TTTTTTCATGATGCGCATGCTTTTTTTTTTTTTTTGCATA [ATACG] ... 0.574
TTTTTTGCTGATGCTGAGCATTTTTTTTTTTTTTTACACT [TCACA] ... 0.51

Note: attention shifts to another entry.
// background-corrected fluorescence lookup, key: TTTTTTGCTCAGCATGATCATTTTTTTTTTTTTTTAGTCG [GCTGA] 0.579

----------
- assay_method_text: background-corrected fluorescence of 3'-dye-labeled ssDNA relative to brightest sequence (3'-GCGCG) (fraction); higher = brighter dye fluorescence (less quenching)
- recorded_conditions: dye: Cy5 (3' terminal)
We use 0.4 as the dividing line for background-corrected fluorescence: on or above the line is T, below is F.

TTTTTTGCTGCTGATGATGCTTTTTTTTTTTTTTTAACCA [ACCAA] ... F
TTTTTTGCTGCTCAGCATGATTTTTTTTTTTTTTTAAGTC [CTGAA] ... F
TTTTTTGCTGAGCATCAGCATTTTTTTTTTTTTTTACTGT [TGTCA] ... T
TTTTTTGCTGATGCGCAGCATTTTTTTTTTTTTTTACATT ... F

Test whether the sequence TTTTTGCATCATGATCATGCTTTTTTTTTTTTTTTTGCGA [AGCGT] records background-corrected fluorescence of 0.4 or higher. T

----------
Items are presented alongside their recorded background-corrected fluorescence.
- assay_method_text: background-corrected fluorescence of 3'-dye-labeled ssDNA relative to brightest sequence (3'-GCGCG) (fraction); higher = brighter dye fluorescence (less quenching)
- recorded_conditions: dye: Cy5 (3' terminal)
Please give the numeric answer without any surrounding text.

Returns the measured background-corrected fluorescence for the input sequence. Input: TTTTTTGATGCTCATGATGATTTTTTTTTTTTTTTCAGCC [CCGAC] 0.321

Query (sequence): TTTTTTGCTCATGATGATGATTTTTTTTTTTTTTTAGCCC [CCCGA] ; field requested: background-corrected fluorescence 0.304

Need background-corrected fluorescence of TTTTTTGCGCATGATGCTCATTTTTTTTTTTTTTTATCAG [GACTA] , thanks. 0.411

What does the data say about its background-corrected fluorescence? Entry: TTTTTTGATGATGATCATGATTTTTTTTTTTTTTTCCCGC [CGCCC] 0.419

Would you mind telling me what background-corrected fluorescence value was observed for TTTTTTCAGCATGCGCATGATTTTTTTTTTTTTTTGTATC [CTATG] ? 0.309

Dear colleague, I am looking for the recorded background-corrected fluorescence of the following sequence: TTTTTTGATGAGCAGCATGCTTTTTTTTTTTTTTTCCTTA [ATTCC] 0.369

----------
- assay_method_text: background-corrected fluorescence of 3'-dye-labeled ssDNA relative to brightest sequence (3'-GCGCG) (fraction); higher = brighter dye fluorescence (less quenching)
- recorded_conditions: dye: Cy3 (3' terminal)
measurement_kind: background-corrected fluorescence
Give the figure by itself; no unit, no explanation.

Take a look at these entries with their results.
TTTTTTGCTGCTGCTGCGCATTTTTTTTTTTTTTTAAAAT ... 0.596
TTTTTTGCTGCTGATGCTGATTTTTTTTTTTTTTTAACAC [CACAA] ... 0.421
TTTTTTGCTGATCATGAGCATTTTTTTTTTTTTTTACGCT [TCGCA] ... 0.5
TTTTTTGATCAGCAGCAGCATTTTTTTTTTTTTTTCGTTT [TTTGC] ... 0.528
TTTTTTGATCAGCATGATCATTTTTTTTTTTTTTTCGTCG [GCTGC] ... 0.609

Fill blank: measured background-corrected fluorescence of the sequence TTTTTGCATGATGCGCAGCATTTTTTTTTTTTTTTTCATT [TTACT] is ____. 0.485

Fill in the blank: the reported background-corrected fluorescence of TTTTTTGCGCATGAGCATCATTTTTTTTTTTTTTTATCTG [GTCTA] is ____. 0.55

Which background-corrected fluorescence value is on record for TTTTTTCATGCGCATGCTGCTTTTTTTTTTTTTTTGATAA [AATAG] ? 0.587

Given the sequence TTTTTGCAGCATGATGCGCATTTTTTTTTTTTTTTTTCAT [TACTT] , what is its reported background-corrected fluorescence? 0.519

Data request, read-out background-corrected fluorescence, for TTTTTTGCTGAGCATGATGATTTTTTTTTTTTTTTACTCC [CCTCA] 0.378

What value of measured background-corrected fluorescence is listed for TTTTTTGCGCATCATCATGCTTTTTTTTTTTTTTTATGGA [AGGTA] ? 0.712

Quick one: background-corrected fluorescence of TTTTTTCAGCATGCTGCTCATTTTTTTTTTTTTTTGTAAG [GAATG] ? 0.582

Could you share which background-corrected fluorescence value was measured for TTTTTTGCGCAGCATGCTGCTTTTTTTTTTTTTTTATTAA [AATTA] ? 0.585

The measurements presented in this section are drawn from the supplement of paper PMC9428881.
